Assay Metric: melting point

| Compound | Assay Metric | Experimental Result |
| --- | --- | --- |
| COCOCc1ccccc1C1Cn2cc(C(=O)NCc3ccc(Cl)cc3)c(=O)c3cc(CN4CCOCC4)cc(c32)O1 (stereo not given) | melting point | 202 to 204 °C |
| COCc1cnc2c(NC(=O)c3c(Cl)cccc3Cl)ccc(C)c2c1N1CCN(C)C1=O | melting point | 105 to 112 °C |
| CC(C)(CNc1ccnc2cc(Cl)ccc12)NCc1c(Cl)cccc1Cl | melting point | 154 to 155 °C |
| COC(=O)C=Cc1[nH]c(=O)c2c(ccc3nc(Nc4c(Cl)cccc4Cl)n(C)c32)c1C | melting point | > 300 °C |
| CC(C)(C)C1C=C(Cn2nc(-c3ccccc3-c3nn(CC4=CC(C(C)(C)C)C(O)(C(C)(C)C)C=C4)c(=O)o3)oc2=O)C=CC1(O)C(C)(C)C (stereo not given) | melting point | 220 °C |
| COc1cc(C(=O)NS(=O)(=O)c2ccccc2C)ccc1Cc1cn(CC(=O)N(C)C)c2ccc(NC(=O)CC3CCCC3)cc12 | melting point | 215 to 218 °C |

Please state, for each entry, its recorded melting point.
1. c1ccc(-c2nccn3cnnc23)cc1
2. CCOC(=O)N1CCN(c2ccc(C3=NNC(=O)CC3C)cc2[N+](=O)[O-])CC1 (stereo not given)
3. COCCOc1cc(N)c(S(C)(=O)=O)cc1[N+](=O)[O-]
4. CC(C)(C)c1ccc(CC[C@@H](N)[C@H](O)c2ccc(F)cc2)cc1 (racemic)

# output
238 to 239 °C
140 to 142 °C
166 to 167 °C
139 to 140 °C

Just for reference, a melting point compilation (Tetko et al.; mined from patent text by program, amines drawn as free bases though some values may be those of a salt) is where these values come from.
